- assay.overview: Inhibition of Wnt3A-induced Wnt transcription (unknown origin) expressed in HEK293 cells coexpressing TK-driven Rluc after 20 to 22 hrs by super-top flash reporter gene assay
- Type: cell-based
- condition.set: Homo sapiens
value.type: IC50 (µM)
A number alone suffices; assume µM.

Example entries and their recorded answers appear below.
O=S(=O)(c1ccc(-n2cccn2)cc1)N1CCCc2ccccc21: 1.65
Cc1ccc2c(c1)CCCN2S(=O)(=O)c1ccc(N2CCCC2=O)cc1: 0.007
CC1CCc2ccccc2N1S(=O)(=O)c1ccc(N2CCCC2=O)cc1 (racemic): 0.011
O=C1CCCN1c1ccc(S(=O)(=O)N2CCOc3ccccc32)cc1: 0.01
O=C1CCCN1c1ccc(S(=O)(=O)N2CCCc3ccccc32)cc1: 0.025
CN1CCN(S(=O)(=O)c2ccc(N3CCCC3=O)cc2)c2ccccc21: 0.011
O=C1CCCN1c1ccc(S(=O)(=O)N2CCCc3cc(C(F)(F)F)ccc32)cc1: 0.054
COc1ccc2c(c1)N(C)CCN2S(=O)(=O)c1ccc(N2CCCC2=O)cc1: 0.017
O=S(=O)(c1ccc(N2CCC=N2)cc1)N1CCCc2ccccc21: 0.015
O=C1CCCN1c1ccc(S(=O)(=O)N2CCCc3cc(Cl)ccc32)cc1: 0.013

*Q* What does the record list as IC50 for O=C1CCCN1c1ccc(S(=O)(=O)N2CCc3ccccc3C2)cc1 ?
*A* 0.634

*Q* What does the record list as IC50 for CN1CCN(S(=O)(=O)c2ccc(N3CCCC3)cc2)c2ccccc21 ?
*A* 0.007

*Q* What does the record list as IC50 for COc1ccc2c(c1)CCCN2S(=O)(=O)c1ccc(N2CCCC2=O)cc1 ?
*A* 0.006
